The values you see were collected from the supplement of paper PMC11417369.

# Tested on: PfAP2-EXP AP2 domain (GST-tagged)
# test.method.notes: gcPBM binding intensity (ln(normalized median fluorescence intensity)); higher = stronger DNA binding
In all, about 25,000 sequences were measured (“ln(normalized median fluorescence intensity)”: median about 8.6, highest 2% from about 10 on). The full list was thinned out, with the highest values kept by preference.
Exercise: state measured gcPBM binding intensity (ln) for each of the sequences provided.
Would you mind answering with just the numeric figure?

Output gcPBM binding intensity (ln) of AATGGTAATCCACATACACACACACCGACACATATA [CACACA_site8876]
8.72

Output gcPBM binding intensity (ln) of GATATAAACGTATATGTACATATATATATATATATA [GTGCAC_negctrl_site186]
10.2

Output gcPBM binding intensity (ln) of AACATAAAAAAAATATGTACATATATAATATATATA [XGTACX_site3764]
8.85

Output gcPBM binding intensity (ln) of TCAACAAAATTGAAGGAACACACATACATATATATA [CACACA_site7940]
8.87

Output gcPBM binding intensity (ln) of AATATATAAACACGTACACACACATATATGTATATA [CACACA_site9168]
8.73

Output gcPBM binding intensity (ln) of CTGTATAAAACCAATGCATGTAAATATATTAATATA [TGCATGCA_site511]
9.1

Output gcPBM binding intensity (ln) of TATAAACGTATAATATGTACACACACATATATACAA [XGTACX_site1686]
8.43

Output gcPBM binding intensity (ln) of TTTTTTTTTTTTTTGGGTACATAATAATAACAAGTG [XGTACX_site1034]
8.28

Output gcPBM binding intensity (ln) of TATATATAAAACATATGTACATATATATATATATAT [XGTACX_site419]
10.2

Output gcPBM binding intensity (ln) of TTACATATGGTTAGTAGTACATATATAAATGTAAAT [XGTACX_site7206]
8.62

Output gcPBM binding intensity (ln) of AATATATGGTTCCTTGATATTAAATTCAATTTAATG [CACACA_negctrl_site71]
8.41

---

# System: PfAP2-EXP AP2 domain (GST-tagged)
# test.method.notes: gcPBM binding intensity (ln(normalized median fluorescence intensity)); higher = stronger DNA binding
Whole data set: some 25,000 sequences, median “ln(normalized median fluorescence intensity)” near 8.6, cut for the highest 2% near 10. This excerpt belongs to a sample that is enriched for the highest values.
Exercise: state measured gcPBM binding intensity (ln) for each of the sequences provided.
Would you mind answering with just the numeric figure?

Output gcPBM binding intensity (ln) of TTTTTTAAATGTATTAAAATTATATATATATATATA [GTGCAC_negctrl_site570]
10.2

Output gcPBM binding intensity (ln) of AAAAAAAAAAAAATGTAATTTTTTAATTATTTATAT [GTGCAC_negctrl_site436]
7.96

Output gcPBM binding intensity (ln) of TTTTTTATTAAATATATATAATAATAATAATTTGTA [CACACA_negctrl_site1719]
7.9

---

Exercise: state measured gcPBM binding intensity (ln) for each of the sequences provided.
# Tested on: PfAP2-EXP AP2 domain (GST-tagged)
# test.method.notes: gcPBM binding intensity (ln(normalized median fluorescence intensity)); higher = stronger DNA binding
In all, about 25,000 sequences were measured (“ln(normalized median fluorescence intensity)”: median about 8.6, highest 2% from about 10 on). For the sample, the highest values were picked, then their nearest neighbours and some sequences at random.
Would you mind answering with just the numeric figure?

Print PfAP2-EXP AP2 domain (GST-tagged) gcPBM binding intensity (ln) for ATACATATACACATATGTACATATGAAAAGAAAAAT [XGTACX_site6445] .
8.94

Print PfAP2-EXP AP2 domain (GST-tagged) gcPBM binding intensity (ln) for AAAAAAAAAATTGAAAGTACACAAATGGGGTATTAT [XGTACX_site3960] .
8.75

Print PfAP2-EXP AP2 domain (GST-tagged) gcPBM binding intensity (ln) for ACATTATATAAAATATGTACACATAAATAAATAAAT [XGTACX_site5031] .
8.73

Print PfAP2-EXP AP2 domain (GST-tagged) gcPBM binding intensity (ln) for AAAACAAAATAGGGAACACACACATGTCAATATATA [CACACA_site8834] .
8.88

Print PfAP2-EXP AP2 domain (GST-tagged) gcPBM binding intensity (ln) for ATATATTTTTACCATACACACATATAACAAATATAT [CACACA_site7706] .
8.75

Print PfAP2-EXP AP2 domain (GST-tagged) gcPBM binding intensity (ln) for AGTTGGATACGAAGATGTACAATAATAATAATTAAG [XGTACX_site3561] .
8.9

Print PfAP2-EXP AP2 domain (GST-tagged) gcPBM binding intensity (ln) for AAAAAAAAAGAAAAATGTACATACATAAATATATAT [XGTACX_site5664] .
8.57

Print PfAP2-EXP AP2 domain (GST-tagged) gcPBM binding intensity (ln) for TATGTATAAAAATAATGTACAAAATATATTATATGT [XGTACX_site2794] .
8.69

Print PfAP2-EXP AP2 domain (GST-tagged) gcPBM binding intensity (ln) for AAATGTTGAAATGATACACACATATAAATATAAATA [CACACA_site7229] .
8.53

Print PfAP2-EXP AP2 domain (GST-tagged) gcPBM binding intensity (ln) for TTTCAAAAATGAGTTACACACACACCGATATATATA [CACACA_site5263] .
8.79

Print PfAP2-EXP AP2 domain (GST-tagged) gcPBM binding intensity (ln) for TCTCTAACTTTTAATACACACAAATAAATAAATAAA [CACACA_site6245] .
8.47

Print PfAP2-EXP AP2 domain (GST-tagged) gcPBM binding intensity (ln) for TTTATTTAAAAAATAAAAAAAAAAAAAAAAAAAAAA [CACACA_negctrl_site1670] .
7.82

Print PfAP2-EXP AP2 domain (GST-tagged) gcPBM binding intensity (ln) for TCAAAAATGAGTTACACACACACATATATATATATA [CACACA_site2229] .
10.2

Print PfAP2-EXP AP2 domain (GST-tagged) gcPBM binding intensity (ln) for AATAATAATAGTAATATGTACATATATATATATATA [TGCATGCA_negctrl_site542] .
10.1

Print PfAP2-EXP AP2 domain (GST-tagged) gcPBM binding intensity (ln) for ATTTGTATATATTAATGTACACACATGCGTATGTTC [XGTACX_site7579] .
8.73

Print PfAP2-EXP AP2 domain (GST-tagged) gcPBM binding intensity (ln) for ATATATATATGTTTGTGTACTTATGATATCATATAA [XGTACX_site3276] .
9.66

Print PfAP2-EXP AP2 domain (GST-tagged) gcPBM binding intensity (ln) for AAATTTGAAGAATATTGTACGCATAATAATTAAATA [XGTACX_site4300] .
8.82

Print PfAP2-EXP AP2 domain (GST-tagged) gcPBM binding intensity (ln) for ATATATATATATAAATGTACAGGCTTATCTCTTATT [XGTACX_site1828] .
10.2

Print PfAP2-EXP AP2 domain (GST-tagged) gcPBM binding intensity (ln) for TATTTTTCCATTGGGGGTACATGTGTTATATTTATT [XGTACX_site5914] .
10.4

Print PfAP2-EXP AP2 domain (GST-tagged) gcPBM binding intensity (ln) for ATAAGTAATATAATATGTACATATATATATATATAT [XGTACX_site3818] .
10.2

Print PfAP2-EXP AP2 domain (GST-tagged) gcPBM binding intensity (ln) for ATAAATAAATAAGTACATATATATATGTATATATAT [TGCATGCA_negctrl_site223] .
8.78

Print PfAP2-EXP AP2 domain (GST-tagged) gcPBM binding intensity (ln) for AAATAAAAATTACAAGCATGCATTTTCCTATTTGCA [TGCATGCA_site861] .
8.56

Print PfAP2-EXP AP2 domain (GST-tagged) gcPBM binding intensity (ln) for TCCTTGCATTTTAAAACACACAAAAATTAATTGTTA [CACACA_site7152] .
8.55
